- Test system: 922993-354-T-J3-PDC complex spheroid viability;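 further: spheroids exposed to the agents for one week; 100% = DMSO vehicle control wells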
- experiment_description: Anticancer human tumor 922993-354-T-J3-PDC patient-derived endometrial carcinoma cell line growth inhibition [POLQ]
- particulars: second compound 0.1 µM; first compound 0.1 µM; stronger effect = lower value
measured_endpoint: viability, T/C (%)
Please respond with the number in % and leave the unit unwritten.

Worked examples, 9 molecules total:
molecule="O=c1[nH]cc(F)c(=O)[nH]1 + COC1C(OC(N)=O)C(O)C(Oc2ccc3c(O)c(NC(=O)c4ccc(O)c(CC=C(C)C)c4)c(=O)oc3c2C)OC1(C)C" measured_value=107
molecule="C#Cc1c(F)ccc2cc(O)cc(-c3ncc4c(N5CC6CCC(C5)N6)nc(OCC56CCCN5CC(F)C6)nc4c3F)c12 (stereo not given) + Cc1cccc(N(C)C(=O)C2C(O)CCN2c2nc(C)cc(C(F)(F)F)c2C#N)c1" measured_value=95
molecule="CNCc1ccc(-c2[nH]c3cc(F)cc4c3c2CCNC4=O)cc1 + COC1C(OC(N)=O)C(O)C(Oc2ccc3c(O)c(NC(=O)c4ccc(O)c(CC=C(C)C)c4)c(=O)oc3c2C)OC1(C)C" measured_value=106
molecule="CC1COCCN1c1cc(C2(S(C)(=N)=O)CC2)nc(-c2ccnc3[nH]ccc23)n1 (stereo not given) + COC1C(OC(N)=O)C(O)C(Oc2ccc3c(O)c(NC(=O)c4ccc(O)c(CC=C(C)C)c4)c(=O)oc3c2C)OC1(C)C" measured_value=92.2
molecule="C#Cc1c(F)ccc2cc(O)cc(-c3ncc4c(N5CC6CCC(C5)N6)nc(OCC56CCCN5CC(F)C6)nc4c3F)c12 (stereo not given) + Nc1ccc(C#CCN(C(=O)Cc2ncc(C(F)(F)F)cc2C(F)(F)F)c2ccc(F)cc2)nn1" measured_value=101
molecule="COc1cc(C2c3cc4c(cc3C(OC3OC5COC(C)OC5C(O)C3O)C3COC(=O)C23)OCO4)cc(OC)c1O (stereo not given) + Cc1cccc(N(C)C(=O)C2C(O)CCN2c2nc(C)cc(C(F)(F)F)c2C#N)c1" measured_value=98.9
molecule="COc1cccc(OCCCN)c1-c1cc(Nc2cnc(C#N)cn2)n[nH]1 + Nc1ccc(C#CCN(C(=O)Cc2ncc(C(F)(F)F)cc2C(F)(F)F)c2ccc(F)cc2)nn1" measured_value=98.5
molecule="Cn1ncnc1[C@H]1c2n[nH]c(=O)c3cc(F)cc(c23)N[C@@H]1c1ccc(F)cc1 + Cc1cccc(N(C)C(=O)C2C(O)CCN2c2nc(C)cc(C(F)(F)F)c2C#N)c1" measured_value=74.9
molecule="COc1cccc2c1C(=O)c1c(O)c3c(c(O)c1C2=O)CC(O)(C(=O)CO)CC3OC1CC(N)C(O)C(C)O1 (stereo not given) + COC1C(OC(N)=O)C(O)C(Oc2ccc3c(O)c(NC(=O)c4ccc(O)c(CC=C(C)C)c4)c(=O)oc3c2C)OC1(C)C" measured_value=101

Query molecule follows.
Query: Which viability, T/C value is on record for COc1cccc2c1C(=O)c1c(O)c3c(c(O)c1C2=O)CC(O)(C(=O)CO)CC3OC1CC(N)C(O)C(C)O1 (stereo not given) + Nc1ccc(C#CCN(C(=O)Cc2ncc(C(F)(F)F)cc2C(F)(F)F)c2ccc(F)cc2)nn1 ?
Response: 103
